SYSTEM NAME: T1R umami taste receptor (Homo sapiens, UniProt Q7RTX0+Q7RTX1)
EXPERIMENT DESCRIPTION: in vitro cell-based assay having cells that express the T1R umami taste receptor (enhancement of MSG)
STUDY CONDITIONS: compound at 50 μM
ENDPOINT LABEL: MSG Enh. Ratio

1. COC(=O)[C@@H](NC(=O)c1ccc2c(c1)OCO2)C(C)C    3.4 @
2. CCOC(=O)[C@H](Cc1ccccc1)NC(=O)/C=C/c1ccc2c(c1)OCO2    3.9 @
3. COC(=O)[C@H](Cc1ccccc1)NC(=O)/C=C/c1cc(OC)ccc1OC    3.1 @
4. CC[C@H](C)[C@H](NC(=O)c1ccc(OC)c(OC)c1)C(=O)OC    2.7 @
5. COC(=O)[C@H](CC(C)C)NC(=O)c1ccc(C)cc1 [Compound 103, Methyl (4-methylbenzoyl)-L-leucinate]    3.4 @
6. CCCCc1ccc(C(=O)N[C@@H](Cc2ccccc2)C(=O)OC)nc1    2.6 @
7. CCOC(=O)[C@@H](NC(=O)c1ccc(COC)cc1)C(C)C    2.7 @
8. CCOC(=O)[C@@H](NC(=O)c1cccc(OC)c1)C(C)C [Compound 108, Ethyl (3-methoxybenzoyl)-L-valinate]    2.7 @

---

SYSTEM NAME: T1R umami taste receptor (Homo sapiens, UniProt Q7RTX0+Q7RTX1)
Sequence (Q7RTX1 21-841): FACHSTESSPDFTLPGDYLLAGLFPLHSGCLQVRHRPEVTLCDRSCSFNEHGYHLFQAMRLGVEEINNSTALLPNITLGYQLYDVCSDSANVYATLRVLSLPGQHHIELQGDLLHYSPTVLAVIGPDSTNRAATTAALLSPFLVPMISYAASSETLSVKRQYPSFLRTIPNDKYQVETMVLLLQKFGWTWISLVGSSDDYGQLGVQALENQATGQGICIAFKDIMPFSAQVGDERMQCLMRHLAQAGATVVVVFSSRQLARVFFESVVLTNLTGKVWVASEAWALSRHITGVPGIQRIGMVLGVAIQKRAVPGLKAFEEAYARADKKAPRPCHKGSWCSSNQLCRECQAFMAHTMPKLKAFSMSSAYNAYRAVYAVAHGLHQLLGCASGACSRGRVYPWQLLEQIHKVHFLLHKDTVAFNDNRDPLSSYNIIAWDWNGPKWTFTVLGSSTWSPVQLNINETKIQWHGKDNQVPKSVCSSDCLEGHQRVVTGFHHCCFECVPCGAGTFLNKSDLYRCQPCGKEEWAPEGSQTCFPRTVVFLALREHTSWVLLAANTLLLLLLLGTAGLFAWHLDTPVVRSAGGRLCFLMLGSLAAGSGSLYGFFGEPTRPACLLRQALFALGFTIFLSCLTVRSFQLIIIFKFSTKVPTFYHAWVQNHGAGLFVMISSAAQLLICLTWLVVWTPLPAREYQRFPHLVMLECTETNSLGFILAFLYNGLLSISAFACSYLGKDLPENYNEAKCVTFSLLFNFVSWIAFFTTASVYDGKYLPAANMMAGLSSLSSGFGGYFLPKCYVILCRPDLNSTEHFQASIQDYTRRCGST
Sequence (Q7RTX0 21-852): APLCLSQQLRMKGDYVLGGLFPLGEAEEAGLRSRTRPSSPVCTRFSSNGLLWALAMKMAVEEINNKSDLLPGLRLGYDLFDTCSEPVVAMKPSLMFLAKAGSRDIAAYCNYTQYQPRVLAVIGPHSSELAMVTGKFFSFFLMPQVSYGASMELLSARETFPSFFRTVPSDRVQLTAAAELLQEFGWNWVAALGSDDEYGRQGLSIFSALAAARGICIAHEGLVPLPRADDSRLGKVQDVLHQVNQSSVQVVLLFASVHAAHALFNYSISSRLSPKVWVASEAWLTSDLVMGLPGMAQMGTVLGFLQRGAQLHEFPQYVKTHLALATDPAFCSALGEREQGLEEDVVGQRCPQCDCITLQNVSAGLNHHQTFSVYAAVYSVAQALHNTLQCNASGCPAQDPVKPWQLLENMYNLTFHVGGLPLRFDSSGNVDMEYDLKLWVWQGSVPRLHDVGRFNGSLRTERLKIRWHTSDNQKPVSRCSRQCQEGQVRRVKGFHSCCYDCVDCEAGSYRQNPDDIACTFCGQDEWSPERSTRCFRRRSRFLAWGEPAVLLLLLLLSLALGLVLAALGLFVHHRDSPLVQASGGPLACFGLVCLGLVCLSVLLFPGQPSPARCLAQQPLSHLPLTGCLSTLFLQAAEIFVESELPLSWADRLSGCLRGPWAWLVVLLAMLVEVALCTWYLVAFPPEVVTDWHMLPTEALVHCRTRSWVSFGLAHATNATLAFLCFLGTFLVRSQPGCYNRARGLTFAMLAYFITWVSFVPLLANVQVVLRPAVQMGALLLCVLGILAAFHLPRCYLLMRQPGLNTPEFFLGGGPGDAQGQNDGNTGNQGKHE
EXPERIMENT DESCRIPTION: in vitro cell-based assay having cells that express the T1R umami taste receptor (enhancement of MSG)
STUDY CONDITIONS: compound at 50 μM
Listing of recorded MSG Enh. Ratio by entry.
ENDPOINT LABEL: MSG Enh. Ratio

1. CCOC(=O)[C@@H](NC(=O)/C=C/c1ccccc1)[C@@H](C)CC [Compound 137, Ethyl cinnamoyl-L-isoleucinate]    4.3 @
2. COC(=O)[C@H](Cc1ccccc1)NC(=O)c1ccc(OC)cc1    6.5 @
3. COC(=O)[C@H](Cc1ccccc1)NC(=O)c1ccc(OC)c(OC)c1    2.5 @
4. C/C=C/C=C/C(=O)N[C@H](C(=O)OCC)C(C)C    3.0 @
5. CCOC(=O)CC[C@H](NC(=O)c1ccc(C)c(C)n1)C(=O)OCC    5.6 @
6. CCC/C=C/C(=O)N[C@H](C(=O)OCC)C(C)C [Compound 175, Ethyl (E)-hex-2-enoyl-L-valinate]    4.4 @
7. CCC/C=C/C(=O)N[C@@H](CCC(=O)OCC)C(=O)OCC [Compound 178, Diethyl (E)-hex-2-enoyl-L-glutamate]    5.6 @
8. CCOC(=O)[C@@H](NC(=O)/C=C/c1ccc2c(c1)OCO2)C(C)C    5.8 @
